experiment description: Cell viability (MTT) assay of flavonoids in Caco-2 cells
Type: cell-based
assay conditions: human
measured attribute: viability at 24 h, 40 μM (%)
Number in %, nothing else.

>>> endpoint_value("C[C@@H]1O[C@@H](O[C@H]2[C@H](Oc3cc(O)c4c(c3)O[C@H](c3ccc(O)cc3)CC4=O)O[C@H](CO)[C@@H](O)[C@@H]2O)[C@H](O)[C@H](O)[C@H]1O")
99.1

Quick one: viability at 24 h, 40 μM of `O=c1c(-c2ccc(O)cc2)coc2c([C@@H]3O[C@H](CO)[C@@H](O)[C@H](O)[C@H]3O)c(O)ccc12` ?
105

What do you get for COc1ccc(CCC(=O)c2c(O)cc(O[C@@H]3O[C@H](CO)[C@@H](O)[C@H](O)[C@H]3O[C@@H]3O[C@@H](C)[C@H](O)[C@@H](O)[C@H]3O)cc2O)cc1O [Compound 30, Neohesperidin dihydrochalcone] ?
102

What do you get for `O=C1C[C@@H](c2ccc(O)cc2)Oc2cc(O)ccc21` ?
101

What do you get for `C[C@@H]1O[C@@H](OC[C@H]2O[C@@H](Oc3c(-c4ccc(O)c(O)c4)oc4cc(O)cc(O)c4c3=O)[C@H](O)[C@@H](O)[C@@H]2O)[C@H](O)[C@H](O)[C@H]1O` ?
106

====

efflux ratio at 60 min, 40 μM: recorded values
experiment description: Permeability (bidirectional transport) of flavonoids in Caco-2 cell monolayers
Assay type: in vitro ADME
assay conditions: human, pH 7.4, Caco-2 monolayer, 60 min, read-out: Ratiop (ratio of Papp B to A to Papp A to B)

>>> endpoint_value("COc1ccc(-c2cc(=O)c3c(OC)c(OC)c(OC)c(OC)c3o2)cc1")
1.1

Quick one: efflux ratio at 60 min, 40 μM of `O=C1C[C@@H](c2ccc(O)cc2)Oc2cc(O)cc(O)c21` ?
1.1

What do you get for `O=c1cc(-c2ccc(O)cc2)oc2cc(O)cc(O)c12` ?
0.99

What do you get for `O=c1cc(-c2ccc(O)c(O)c2)oc2cc(O)cc(O)c12` ?
2.12

What do you get for `O=c1c(O)c(-c2ccc(O)c(O)c2)oc2cc(O)cc(O)c12` ?
1.84

What do you get for `COc1ccc([C@@H]2CC(=O)c3c(O)cc(O)cc3O2)cc1O` ?
1.19

What do you get for `O=c1cc(-c2ccccc2)oc2ccccc12` ?
0.97

What do you get for `O=c1c(O)c(-c2cc(O)c(O)c(O)c2)oc2cc(O)cc(O)c12` ?
1.5

What do you get for `O=c1cc(-c2ccccc2)oc2cc(O)cc(O)c12` ?
1.24

====

Papp at 1 h, 40 μM: recorded values
experiment description: Permeability (bidirectional transport) of flavonoids in Caco-2 cell monolayers
Assay type: in vitro ADME
assay conditions: human, pH 7.4, direction not specified (bilateral), Caco-2 monolayer

Examples with their reported Papp at 1 h, 40 μM follow.
>>> endpoint_value("O=c1c(O)c(-c2cc(O)c(O)c(O)c2)oc2cc(O)cc(O)c12")
"< 0.5 ×10⁻⁶ cm/s"
>>> endpoint_value("C[C@@H]1O[C@@H](Oc2c(-c3ccc(O)c(O)c3)oc3cc(O)cc(O)c3c2=O)[C@H](O)[C@H](O)[C@H]1O")
"< 6 ×10⁻⁶ cm/s"

Query molecule follows.
Quick one: Papp at 1 h, 40 μM of `O=c1c(-c2ccc(O)cc2)coc2cc(O)cc(O)c12` ?
> 30 ×10⁻⁶ cm/s
